Data origin, for the record: ChEMBL document CHEMBL1240489

experiment: Binding affinity to human Ca2+ channel diltiazem site by radioligand displacement assay
quantity name: Ki

structure_as_smiles=O=C(Cc1ccccc1)NC1CCN(CCCN2C(=O)COc3ccccc32)CC1 result="≥ 1000 nM"

====

Consider the following compounds and their measured EC50 readings.
Molecular target: Muscarinic acetylcholine receptor M1 (Homo sapiens)
Sequence (P11229 whole entry): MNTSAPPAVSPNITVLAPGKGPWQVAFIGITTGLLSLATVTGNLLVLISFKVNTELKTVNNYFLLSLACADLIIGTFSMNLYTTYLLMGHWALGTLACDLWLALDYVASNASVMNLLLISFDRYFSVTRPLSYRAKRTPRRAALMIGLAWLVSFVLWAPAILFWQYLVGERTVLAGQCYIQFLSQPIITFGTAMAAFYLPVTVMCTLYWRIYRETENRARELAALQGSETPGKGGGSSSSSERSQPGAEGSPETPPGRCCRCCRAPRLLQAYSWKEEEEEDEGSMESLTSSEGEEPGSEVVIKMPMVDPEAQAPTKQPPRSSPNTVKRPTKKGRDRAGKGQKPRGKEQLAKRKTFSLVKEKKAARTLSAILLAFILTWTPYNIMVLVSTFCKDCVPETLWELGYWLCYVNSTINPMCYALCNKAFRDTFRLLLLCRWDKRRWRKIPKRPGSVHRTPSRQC
quantity name: EC50 (nM)

structure_as_smiles=CC(=O)NC1CCN(CCCN2C(=O)CCc3cc(F)c(F)cc32)CC1 measurement_target="Muscarinic acetylcholine receptor M1 (Homo sapiens)" unit_descriptor=nM numeric_result=86
structure_as_smiles=COc1cccc(CC(=O)NC2CCN(CCCN3C(=O)COc4ccccc43)CC2)c1 measurement_target="Muscarinic acetylcholine receptor M1 (Homo sapiens)" unit_descriptor=nM numeric_result=130
structure_as_smiles=O=C(Cc1ccccc1)NC1CCN(CCCN2C(=O)CSc3ccccc32)CC1 measurement_target="Muscarinic acetylcholine receptor M1 (Homo sapiens)" unit_descriptor=nM numeric_result=100
structure_as_smiles=O=C(Cc1ccccc1)NC1CCN(CCCN2C(=O)COc3ccccc32)CC1 measurement_target="Muscarinic acetylcholine receptor M1 (Homo sapiens)" unit_descriptor=nM numeric_result=61

====

Measured pEC50 by item
Target protein (sequence): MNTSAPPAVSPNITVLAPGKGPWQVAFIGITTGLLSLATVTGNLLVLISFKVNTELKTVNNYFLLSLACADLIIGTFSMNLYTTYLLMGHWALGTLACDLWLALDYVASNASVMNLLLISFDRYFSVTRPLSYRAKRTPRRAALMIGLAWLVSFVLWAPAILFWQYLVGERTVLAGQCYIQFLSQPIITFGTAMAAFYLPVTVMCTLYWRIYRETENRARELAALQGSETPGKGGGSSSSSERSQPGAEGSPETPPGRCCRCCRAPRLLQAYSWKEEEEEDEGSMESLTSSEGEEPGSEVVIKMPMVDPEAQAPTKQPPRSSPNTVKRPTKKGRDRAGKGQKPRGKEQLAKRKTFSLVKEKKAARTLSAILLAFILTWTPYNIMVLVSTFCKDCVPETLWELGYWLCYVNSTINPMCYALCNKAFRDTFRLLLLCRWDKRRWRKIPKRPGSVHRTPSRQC
pEC50: −log10 of the molar value.
quantity name: pEC50

structure_as_smiles=CCC(=O)NC1CCN(CCCN2C(=O)CCc3cc(F)c(F)cc32)CC1 numeric_result=7.70
structure_as_smiles=CN(C(=O)Cc1ccccc1)C1CCN(CCCN2C(=O)COc3ccccc32)CC1 numeric_result=6.04
structure_as_smiles=O=C(Cc1ccccc1)NC1CCN(CCCN2C(=O)CCc3cc(F)ccc32)CC1 numeric_result=7.31
structure_as_smiles=O=C(Cc1ccccc1)NC1CCN(CCCN2C(=O)CCc3ccc(F)cc32)CC1 numeric_result=7.29
structure_as_smiles=CCC(=O)NC1CCN(CCCN2C(=O)CCc3cc(F)ccc32)CC1 numeric_result=8.05
structure_as_smiles=O=C(Cc1ccccc1)NC1CCN(CCCN2C(=O)CCc3ccccc32)CC1 numeric_result=7.32
structure_as_smiles=CCC(=O)NC1CCN(CCCN2C(=O)CCc3ccc(F)cc32)CC1 numeric_result=7.70
structure_as_smiles=O=C(NC1CCN(CCCN2C(=O)COc3ccccc32)CC1)C1CC1 numeric_result=6.96
structure_as_smiles=CCC(=O)NC1CCN(CCCN2C(=O)CCc3cccc(F)c32)CC1 numeric_result=6.51
structure_as_smiles=O=C(NC1CCN(CCCN2C(=O)COc3ccccc32)CC1)C1CCC1 numeric_result=6.80
structure_as_smiles=COc1ccc2c(c1)CCC(=O)N2CCCN1CCC(NC(=O)Cc2ccccc2)CC1 numeric_result=6.25
structure_as_smiles=CCC(=O)NC1CCN(CCCN2C(=O)CCc3c(F)cccc32)CC1 numeric_result=7.72
structure_as_smiles=O=C(CCc1ccccc1)NC1CCN(CCCN2C(=O)COc3ccccc32)CC1 numeric_result=6.01
structure_as_smiles=CC(=O)NC1CCN(CCCN2C(=O)COc3ccccc32)CC1 numeric_result=6.74
structure_as_smiles=O=C(NC1CCN(CCCN2C(=O)COc3ccccc32)CC1)C1CCCC1 numeric_result=6.46
structure_as_smiles=O=C(Cc1ccccc1)NC1CCN(CCCN2C(=O)CCc3c(F)cccc32)CC1 numeric_result=6.82

====

target: UniProtKB P11229; experiment: Agonist activity at human muscarinic M1 receptor expressed in CHO-K1 cells assessed as increase of acetylcholine-induced calcium flux by FLIPR assay relative to acetylcholine; type: functional, cell-based
# reported Emax; entries follow
quantity name: Emax (%)

compound=O=C(Cc1ccccc1)NC1CCN(CCCN2C(=O)CCc3cc(F)ccc32)CC1 unit_descriptor=% numeric_result=79
compound="CCCCCCOc1nsnc1C1=CCCN(C)C1 [XANOMELINE]" unit_descriptor=% numeric_result=89
compound=CCC(=O)NC1CCN(CCCN2C(=O)COc3cc(F)c(F)cc32)CC1 unit_descriptor=% numeric_result=88
compound="Clc1ccc2c(c1)N=C(N1CCNCC1)c1ccccc1N2 [N-DESMETHYLCLOZAPINE]" unit_descriptor=% numeric_result=75
compound=O=C(Cc1ccccc1)NC1CCN(CCCN2C(=O)CSc3ccccc32)CC1 unit_descriptor=% numeric_result=79
compound=O=C(NC1CCN(CCCN2C(=O)COc3ccccc32)CC1)C1CC1 unit_descriptor=% numeric_result=74
compound=O=C(Cc1ccccc1)NC1CCN(CCCN2C(=O)CCc3ccccc32)CC1 unit_descriptor=% numeric_result=89
compound=CCC(=O)NC1CCN(CCCN2C(=O)CCc3cc(F)ccc32)CC1 unit_descriptor=% numeric_result=83
compound=O=C(NC1CCN(CCCN2C(=O)COc3ccccc32)CC1)C1CCC1 unit_descriptor=% numeric_result=37
compound=O=C(Cc1ccccc1)NC1CCN(CCCN2C(=O)CCc3ccc(F)cc32)CC1 unit_descriptor=% numeric_result=86
compound=CCC(=O)NC1CCN(CCCN2C(=O)CCc3c(F)cccc32)CC1 unit_descriptor=% numeric_result=90
compound=O=C(Cc1ccccc1)NC1CCN(CCCN2C(=O)CCc3cccc(F)c32)CC1 unit_descriptor=% numeric_result=75
compound=CC(C)C(=O)NC1CCN(CCCN2C(=O)COc3ccccc32)CC1 unit_descriptor=% numeric_result=72
compound=COc1ccc2c(c1)N(CCCN1CCC(NC(=O)Cc3ccccc3)CC1)C(=O)CC2 unit_descriptor=% numeric_result=83
compound=CN(C(=O)Cc1ccccc1)C1CCN(CCCN2C(=O)COc3ccccc32)CC1 unit_descriptor=% numeric_result=67
compound=O=C(Cc1ccccc1)NC1CCN(CCCN2C(=O)CCc3c(F)cccc32)CC1 unit_descriptor=% numeric_result=77
compound=COc1ccc2c(c1)CCC(=O)N2CCCN1CCC(NC(=O)Cc2ccccc2)CC1 unit_descriptor=% numeric_result=84
